Cited source: paper PMC10786891

- experimentalTarget: T1, EsCas13d, nuclease-dead (Eubacterium siraeum, UniProt B0MS50, R295A;H300A;R849A;H854A)
- T1 sequence: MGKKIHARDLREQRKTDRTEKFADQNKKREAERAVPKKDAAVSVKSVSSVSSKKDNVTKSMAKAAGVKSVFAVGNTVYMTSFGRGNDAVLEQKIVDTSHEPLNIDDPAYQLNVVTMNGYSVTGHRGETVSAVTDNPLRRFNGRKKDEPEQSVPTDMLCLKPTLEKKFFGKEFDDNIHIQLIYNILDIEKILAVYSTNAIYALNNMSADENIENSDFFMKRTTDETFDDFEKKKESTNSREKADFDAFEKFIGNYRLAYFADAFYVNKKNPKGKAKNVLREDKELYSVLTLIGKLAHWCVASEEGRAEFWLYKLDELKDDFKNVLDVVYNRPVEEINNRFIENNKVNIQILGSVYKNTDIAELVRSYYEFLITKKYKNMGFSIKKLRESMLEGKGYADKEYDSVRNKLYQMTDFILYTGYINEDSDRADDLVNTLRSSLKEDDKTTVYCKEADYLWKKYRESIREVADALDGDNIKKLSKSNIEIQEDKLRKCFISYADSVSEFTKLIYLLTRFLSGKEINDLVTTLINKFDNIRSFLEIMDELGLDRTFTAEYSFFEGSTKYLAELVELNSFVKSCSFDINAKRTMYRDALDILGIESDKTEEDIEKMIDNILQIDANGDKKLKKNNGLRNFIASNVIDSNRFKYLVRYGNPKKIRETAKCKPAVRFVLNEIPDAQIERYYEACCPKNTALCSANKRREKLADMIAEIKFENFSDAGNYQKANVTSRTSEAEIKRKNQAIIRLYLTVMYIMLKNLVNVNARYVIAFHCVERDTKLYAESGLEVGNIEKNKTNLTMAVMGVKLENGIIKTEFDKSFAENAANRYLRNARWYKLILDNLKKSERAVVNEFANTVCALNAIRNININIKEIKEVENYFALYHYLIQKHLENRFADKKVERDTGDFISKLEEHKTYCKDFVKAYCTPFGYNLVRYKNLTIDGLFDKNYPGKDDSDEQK
- assayInfo: crRNA (strand 1, pre-loaded); Mg2+; 40 mM Tris-HCl pH 7.5, 150 mM NaCl, 6 mM MgCl2, 1 mM DTT, 0.1% Tween-20, 0.2 mg/ml BSA; 25 C; 10 min per concentration, then washed
- testSettings: tags: His6-TwinStrep-SUMO cleaved; N-terminal SNAP kept (SNAP-Surface 488); label: 3' end held by stalled T7 RNA polymerase
property: Kd (nM)
Give the value in nM but do not write nM after it.

Look over these answered cases.
[[record]]
binder = "target 3 insU 3' of 16,insU 3' of 16 (mixed) RNA 1: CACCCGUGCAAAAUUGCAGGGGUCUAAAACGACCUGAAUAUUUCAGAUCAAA RNA 2: GGGAAUGGAUCCACAUCUACGAAUUCGUUUUUGAUCUUUGAAAUAUUCAGGUCUGCAGAUCGGAAGAGCACACGU"
property = "Kd"
observed = 76.5

[[record]]
binder = "target 3 insA 3' of 4,insG 3' of 2 (mixed) RNA 1: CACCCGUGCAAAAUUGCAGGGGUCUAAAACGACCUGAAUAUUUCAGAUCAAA RNA 2: GGGAAUGGAUCCACAUCUACGAAUUCGUUUUUGAUCUGAAAUAUUCAGAGUGCUGCAGAUCGGAAGAGCACACGU"
property = "Kd"
observed = 49

[[record]]
binder = "target 2 MT 5'PFS GGA 3'PFS UAA (mixed) RNA 1: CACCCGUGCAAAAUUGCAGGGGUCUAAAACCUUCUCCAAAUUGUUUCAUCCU RNA 2: GGGAAUGGAUCCACAUCUACGAAUUCGGAAGGAUGAAACAAUUUGGAGAAGUAAAGAUCGGAAGAGCACACGU"
property = "Kd"
observed = 5.6


# input for lookup
Need Kd, item target 1 del12,del13 (mixed) RNA 1: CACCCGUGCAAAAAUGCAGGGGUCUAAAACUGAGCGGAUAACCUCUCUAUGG RNA 2: GGGAAUGGAUCCACAUCUACGAAUUCGUACCAUAGAGAUUAUCCGCUCACCGAGAUCGGAAGAGCACACGU 18.6
